Source: patent US20100040598A1

- TEST SUMMARY: Influence of food intake on absorption of clavulanic acid and amoxicillin (plasma pharmacokinetics after test tablet, Comparative Example A)
- Format: in vivo, human
- ASSAY CONDITIONS: human, plasma, oral, clavulanic acid in human plasma; one test tablet; at the beginning of a meal; read-out: tmax, median (converted)
- Method: An exploratory study involving 9 healthy volunteers receive the test product under fasted and fed conditions. […] Blood samples are taken before and 0.5, 1, 1.5, 2, 2.5, 3, 3.5, 4, 4.5, 5, 5.5, 6, 6.5, 7, 7.5, 8, 8.5, 9, 9.5, 10 and 12 hours after ingestion of the test tablet. […] Concentrations of both amoxicillin and clavulanic acid are determined according to known methods using a LC-MS/MS procedure (HPLC coupled Online with MS). […]
PROPERTY LABEL: Tmax (h)
Value expressed in h; do not type the unit.

Which value of Tmax has been reported for O=C(O)[C@H]1/C(=C/CO)O[C@@H]2CC(=O)N21 in the records?
1.5

###

- TEST SUMMARY: Influence of food intake on absorption of clavulanic acid and amoxicillin (plasma pharmacokinetics after test tablet, Comparative Example A)
- Type: in vivo, human
- ASSAY CONDITIONS: human, plasma, oral, clavulanic acid in human plasma; one test tablet; at the beginning of a meal; read-out: Cmax, median
PROPERTY LABEL: Cmax (ng/mL)
Value expressed in ng/mL; do not type the unit.

Which value of Cmax has been reported for O=C(O)[C@H]1/C(=C/CO)O[C@@H]2CC(=O)N21 [clavulanic acid] in the records?
1240

###

- TEST SUMMARY: Influence of food intake on absorption of clavulanic acid and amoxicillin (plasma pharmacokinetics after test tablet, Comparative Example A)
- Assay type: in vivo, human
- ASSAY CONDITIONS: human, plasma, oral, clavulanic acid in human plasma; one test tablet; fasting conditions; 9 volunteers; read-out: Cmax, mean value ± s
PROPERTY LABEL: Cmax (ng/mL)
Value expressed in ng/mL; do not type the unit.

Which value of Cmax has been reported for O=C(O)[C@H]1/C(=C/CO)O[C@@H]2CC(=O)N21 in the records?
1400

###

- TEST SUMMARY: Influence of food intake on absorption of clavulanic acid and amoxicillin (plasma pharmacokinetics after test tablet, Comparative Example A)
- Format: in vivo, human
- ASSAY CONDITIONS: human, plasma, oral, clavulanic acid in human plasma; one test tablet; fasting conditions; 9 volunteers; read-out: tmax, mean value ± s (converted)
PROPERTY LABEL: Tmax

Which value of Tmax has been reported for O=C(O)[C@H]1/C(=C/CO)O[C@@H]2CC(=O)N21 [clavulanic acid] in the records?
~1.5 h

###

- TEST SUMMARY: Influence of food intake on absorption of clavulanic acid and amoxicillin (plasma pharmacokinetics after test tablet, Comparative Example A)
- Type: in vivo, human
- ASSAY CONDITIONS: human, plasma, oral, clavulanic acid in human plasma; one test tablet; fasting conditions; 9 volunteers; read-out: AUC0→∞, mean value ± s (converted)
PROPERTY LABEL: AUC(0-inf) (ng·h/mL)
Value expressed in ng·h/mL; do not type the unit.

Which value of AUC(0-inf) has been reported for O=C(O)[C@H]1/C(=C/CO)O[C@@H]2CC(=O)N21 [clavulanic acid] in the records?
3300
